Would you kindly list Ki for each of these compounds?
target of assay: MMP-14 (Homo sapiens)
Construct: The catalytic domain enzyme was expressed in E. coli inclusion bodies, solubilized in urea; made in house
test description: In vitro MMP inhibition, Ki determination (fluorogenic substrate II)
Type: biochemical
condition set: value outside parentheses; read-out: MMP-14 Ki

O=C(NO)C1(S(=O)(=O)N2CCN(c3ccc(-c4nn[nH]n4)cc3)CC2)CCOCC1 [Example 419]: > 10 µM
COCCN1CCC(C(=O)NO)(S(=O)(=O)N2CCC(c3ncc(CC(C)C)s3)CC2)CC1 [Example 311]: > 10 µM
CCCCc1ccc(C2(O)CCN(S(=O)(=O)C3(C(=O)NO)CCOCC3)CC2)nc1 [Example 420]: > 10 µM

Here are 3 compounds. What values of Ki were reported for them?
1. O=C(NO)C1(S(=O)(=O)N2CCN(c3cccc(OCCCC(F)(F)F)c3)CC2)CCOCC1 [Example 355]
2. CCCCCC/C=C\C1CCN(S(=O)(=O)C2(C(=O)NO)CCOCC2)CC1 [Example 401]
3. COCCN1CCC(C(=O)NO)(S(=O)(=O)N2CCN(c3ncccn3)CC2)CC1 [Example 332]

3.44 µM
2.72 µM
> 10 µM

---

So I've got a bunch of compounds here, and I need their pKi values.
target of assay: MMP-14 (Homo sapiens, UniProt P50281)
Construct: The catalytic domain enzyme was expressed in E. coli inclusion bodies, solubilized in urea; made in house
test description: In vitro MMP inhibition, Ki determination (fluorogenic substrate II)
Format: biochemical
condition set: value not in parenthesis; read-out: MMP-14 Ki
One number for each entry, as −log10 of the molar value.

Completed entries (count: 3):
CCCCOc1ccc(N2CCN(S(=O)(=O)C3(C(=O)NO)CCN(c4nccs4)CC3)CC2)cc1 [Example 157]: 5.56
CCCCOc1ccc(N2CCN(S(=O)(=O)C3(C(=O)NO)CCN(c4ccccn4)CC3)CC2)cc1 [Example 149]: 5.58
O=C(NO)C1(S(=O)(=O)N2CCN(c3ccc(OC(F)(F)F)cc3)CC2)CCN(C2CC2)CC1 [Example 203]: 6.24

Please look at the items below and tell me pKi for each one, in order.
1. COCCN1CCC(C(=O)NO)(S(=O)(=O)N2CCN(c3ccc(OCCC(C)C)cc3)CC2)CC1 [Example 148]
2. O=C(NO)C1(S(=O)(=O)N2CCN(c3ccc(C(F)(F)F)cn3)CC2)CCOCC1 [Example 94]
3. CCCCOc1ccc(N2CCN(S(=O)(=O)C3(C(=O)NO)CCN(Cc4ccc(C)o4)CC3)CC2)cc1 [Example 246]
4. CCCCOc1ccc(N2CCN(S(=O)(=O)C3(C(=O)NO)CCN(CCN(CC)CC)CC3)CC2)cc1 [Example 235]
5. CCCCOc1ccc(N2CCN(S(=O)(=O)C3(C(=O)NO)CCN(Cc4nccn4C)CC3)CC2)cc1 [Example 245]
6. CCCCc1ccc(N2CCN(S(=O)(=O)C3(C(=O)NO)CCOCC3)CC2)nc1 [Example 168]
7. CCCCc1ccc(N2CCN(S(=O)(=O)C3(C(=O)NO)CCN(c4ccc(C)cc4)CC3)CC2)cc1 [Example 146]

5.16
6.66
5.23
5.40
5.55
6.27
5.06

For each of the compounds below, note its pKi.
1. CCCCc1ccc(N2CCN(S(=O)(=O)C(C)C(=O)NO)CC2)nc1 (stereo not shown) [Example 217]
2. O=C(NO)C1(S(=O)(=O)N2CCN(c3cccc(C(F)(F)F)c3)CC2)CCOCC1 [Example 82]
3. COCCSc1ccc(N2CCN(S(=O)(=O)C3(C(=O)NO)CCOCC3)CC2)cc1 [Example 227]
4. CCCCOc1ccc(N2CCN(S(=O)(=O)C3(C(=O)NO)CCOCC3)CC2)c(F)c1 [Example 90]

1: 5.82; 2: 5.80; 3: 5.77; 4: 5.34
